assay.overview: Toxicity liver stage against HepG2, at 10uM
Assay type: cell-based
Parameters: test concentration 10 uM, cell line HepG2-A16-CD81EGFP
recorded.conditions: human, HepG2-A16-CD81EGFP cells; read-out: INHIBITION
measurement.type: cytotoxicity at 10 µM (%)
Field: numeric (%). Do not append units.

>>> data_value("CCc1noc(C)c1C(=O)N1CCCC1Cn1cccn1 (stereo not drawn)")
-3.04
>>> data_value("CC(Cn1cncn1)NC(=O)N1CC2(CCCC2)c2ccccc21 (stereo not drawn)")
5.65
>>> data_value("N#CCCN1CCN(S(=O)(=O)c2ccc(Cl)s2)CC1")
14.7

So what does the record say about cytotoxicity at 10 µM for `CCC[C@H]1CN(c2cncc(C(=O)N3CCCCC3)n2)C[C@@H]1N(C)C` ?
-11.2

So what does the record say about cytotoxicity at 10 µM for CC1(C2CCN(CCCC(=O)O)CC2)CN(Cc2ccccc2)C(=O)O1 (stereo not drawn) ?
-21.9

So what does the record say about cytotoxicity at 10 µM for Cc1nc2c(c(N3CCCC(CO)C3)n1)CCN(Cc1ccco1)CC2 (stereo not drawn) ?
-0.044

So what does the record say about cytotoxicity at 10 µM for CCC(Nc1ncccn1)c1ccc(OC)cc1 (stereo not drawn) ?
-12.6

So what does the record say about cytotoxicity at 10 µM for CCc1csc(C2CCCN(C(=O)c3ccco3)C2)n1 (stereo not drawn) ?
2.56
